- Tested on: ACHN renal
- MEASUREMENT NOTES: NCI-60 one-dose screen, 48 h
- CONDITION SUMMARY: 10 µM unless noted
This is part of a sample that, as a whole, favours compounds with a hit. Of some 83,000 tested, about 20% had one in any assay. The source made the active and inactive calls. Rule for the calls: active = growth percent below 10; inactive = the rest.
Give your call using only these classes: active, inactive

For orientation, consider the following solved cases.
O=[N+]([O-])c1cc2c(cc1Br)-c1ccccc1C2 ... inactive
COC(=O)CCC(=O)c1ccccc1 ... inactive
Cc1ccc2nc(NC(=O)CSC(=S)N3CCN(Cc4ccccc4)CC3)sc2c1 ... active
CN1CCN(c2nc(-c3ccncc3)nc3sc4c(c23)CCCCCC4)CC1 ... inactive
C=C(C)COC(=O)c1ccccc1C(=O)OCC1(C)CO1 (stereo not given) ... inactive
CCCCC(O)Cn1ncc(C(=O)OCC)c1NC(=O)NCc1ccccc1C(F)(F)F (stereo not given) ... inactive
O=C(Nc1nc2ccccc2[nH]1)C(=O)Nc1nc2ccccc2[nH]1 ... inactive
CC(=O)OC[C@]1(C)C=C2C(=O)[C@](C)(O)C3(CC3)C(C)=C2[C@H]1OC(C)=O ... inactive

Input line: State the result this test recorded for NC(=O)c1cccc(-n2ccc3cc(NC(=O)Nc4ccc(Cl)c(Cl)c4)ccc32)n1 .
Output line: inactive

Input line: One more compound: Cc1nn(CC(=O)O)c2c1C(=O)CC(C)(C)C2
Output line: inactive

Input line: Try CCCCCCCC/C=C\CCCCCCCCOc1cccc(CC(=O)NCC[N+]2(C)CCCCC2)c1 next.
Output line: inactive

Input line: And for COc1ccc(Nc2[nH]n(C3=Nc4ccccc4Sc4ccccc43)c(=O)c2C#N)cc1 ?
Output line: inactive

Input line: Here is the next compound: CCOC(=O)c1cnn(CC(O)c2ccc(F)cc2)c1NC(=O)Nc1ccccc1F (stereo not given)
Output line: inactive

Input line: Same question, COc1c(Cl)ccc2c(-c3nc4cc(Cl)c(F)cc4s3)cc(=O)oc12 this time
Output line: inactive

Input line: Next record, please: COC(=O)C1C2CC3c4[nH]c5cc(OC)ccc5c4CCN3CC2CC(OC2CCCCO2)C1OC (stereo not given)
Output line: inactive

====

- System: SR leukemia
- MEASUREMENT NOTES: NCI-60 one-dose screen, 48 h
- CONDITION SUMMARY: 10 µM unless noted
About 83,000 compounds went through this panel and 20% of them were active in at least one assay; those are over-represented in the sample as a whole. Calls of active or inactive are those of the source. Rule for the calls: active = growth percent below 10; inactive = the rest.
One label from this list, please: active, inactive

The examples below pair each entry with its known result.
C[C@@H](Oc1cc(-c2cnn(C3CC4(CCNCC4)C3)c2)cnc1N)c1c(F)ccc(Cl)c1Cl ... active
CSc1nnc(-c2sc3nnc(-c4ccccc4)c(-c4ccccc4)c3c2O)o1 ... inactive
Cc1ccc(S(=O)(=O)N2CCc3ccc(O)c4c3C2Cc2ccc3c(c2-4)OCO3)cc1 (centres undefined) ... inactive

Proceed to the following item.
Input line: Returns: the outcome recorded for COc1ccc(OC2=C(C#N)C(=N)N3c4ccccc4Sc4ccccc4C3N2)cc1 (centres undefined) in this assay.
Output line: inactive

====

- Test system: OVCAR-3 ovarian
- MEASUREMENT NOTES: NCI-60 one-dose screen, 48 h (100 = growth as untreated, 0 = no growth, -100 = all killed)
- CONDITION SUMMARY: 10 µM unless noted
About 83,000 compounds went through this panel and 20% of them were active in at least one assay; those are over-represented in the sample as a whole.
Assign growth to each entry below.
Numbers only, in %.

CCN(CC)c1ccc2c(c1)OS(=O)(=O)N=C2 ... 114
COc1cc(C(F)(F)F)ccc1-c1cc(-c2ccc(F)cc2)n[nH]1 ... 91.9

Now examine the next entry.
Input line: Given COc1cc(-c2nc(Nc3nc4ccccc4[nH]3)nc(N)c2C#N)cc(OC)c1OC , state its recorded growth.
Output line: 15.1

These entries and their values trace back to PubChem BioAssay (NCI).
